Biological target: human TLR9 (Homo sapiens)
Construct: HA; host or cells: 293XL-hTLR9-HA (HEK293)
Sequence (Q9NR96 26-1032): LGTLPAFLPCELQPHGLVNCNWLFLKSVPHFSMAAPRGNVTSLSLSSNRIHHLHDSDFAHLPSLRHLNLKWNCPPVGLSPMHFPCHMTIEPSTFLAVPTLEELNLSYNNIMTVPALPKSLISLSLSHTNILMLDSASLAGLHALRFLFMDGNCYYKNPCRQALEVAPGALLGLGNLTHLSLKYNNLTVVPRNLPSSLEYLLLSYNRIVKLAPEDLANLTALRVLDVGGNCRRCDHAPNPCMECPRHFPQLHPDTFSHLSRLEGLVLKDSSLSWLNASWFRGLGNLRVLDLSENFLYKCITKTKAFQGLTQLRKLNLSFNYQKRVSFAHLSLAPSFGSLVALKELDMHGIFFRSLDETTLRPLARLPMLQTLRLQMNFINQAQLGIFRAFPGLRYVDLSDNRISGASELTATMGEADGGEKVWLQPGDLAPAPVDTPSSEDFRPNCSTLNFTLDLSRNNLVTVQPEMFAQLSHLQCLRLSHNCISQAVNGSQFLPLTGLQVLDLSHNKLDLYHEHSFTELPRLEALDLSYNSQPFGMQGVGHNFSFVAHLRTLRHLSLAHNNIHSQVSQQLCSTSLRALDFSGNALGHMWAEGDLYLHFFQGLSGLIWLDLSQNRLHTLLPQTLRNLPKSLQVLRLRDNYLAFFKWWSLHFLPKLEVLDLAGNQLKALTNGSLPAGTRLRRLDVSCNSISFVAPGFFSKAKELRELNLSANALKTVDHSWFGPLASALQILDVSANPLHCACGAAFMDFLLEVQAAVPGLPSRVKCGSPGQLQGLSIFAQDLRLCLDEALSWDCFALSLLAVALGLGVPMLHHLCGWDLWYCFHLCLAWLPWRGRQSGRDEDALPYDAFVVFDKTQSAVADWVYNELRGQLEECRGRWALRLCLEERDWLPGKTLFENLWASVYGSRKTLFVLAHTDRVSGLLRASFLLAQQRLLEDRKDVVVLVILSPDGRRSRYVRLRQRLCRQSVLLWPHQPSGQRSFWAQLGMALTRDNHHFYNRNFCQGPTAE
Assay: HEK-TLR9 NF-κB-luciferase reporter, ODN2006 stimulation
Assay type: cell-based
Conditions: HEK-TLR9; 500 nM ASO 45 min, then 200 nM ODN2006 overnight; percentage of ODN2006 only
In the oligonucleotide strings, read from the 5' end, every base follows the letter of its sugar. An asterisk marks phosphorothioate; unmarked linkages are phosphodiester. Other units and linkages are bracketed, terminal groups are in braces. A string of capitals states the bases alone. d = 2'-deoxy (DNA); m = 2'-O-methyl
MEASURED PROPERTY: TLR9-500 nM: averaged NF-κB-Luciferase relative to ODN2006 (%)

substance="mU*mG*mU*mU*mU*C*C*C*C*G*G*A*G*A*G*mC*mA*mA*mU*mG (UGUUUCCCCGGAGAGCAAUG; antisense; sugars from the 5' end m5 d10 m5, all phosphorothioate, methylation of C not given here) [[LINC-PINT]501 KL]" experimental_target="human TLR9 (Homo sapiens)" readout_value=71.47
substance="mG*mG*mG*mU*mC*T*C*C*T*C*C*A*C*A*C*mC*mC*mU*mU*mC (GGGUCTCCTCCACACCCUUC; antisense; sugars from the 5' end m5 d10 m5, all phosphorothioate, methylation of C not given here) [[LINC-PINT]128]" experimental_target="human TLR9 (Homo sapiens)" readout_value=94.51
substance="mA*mG*mU*mG*mG*C*A*C*A*T*A*C*C*A*C*mA*mC*mC*mC*mU (AGUGGCACATACCACACCCU; antisense; sugars from the 5' end m5 d10 m5, all phosphorothioate, methylation of C not given here) [[CDKN2B-AS1]495]" experimental_target="human TLR9 (Homo sapiens)" readout_value=86.07
substance="mC*mA*mU*mC*mC*C*T*T*C*T*G*C*T*G*C*mC*mA*mA*mG*mC (mC*mA*mU*mC*mC*dC*dT*dT*dC*dT*dG*dC*dT*dG*dC*mC*mA*mA*mG*mC; antisense) [[LINC-PINT]98]" experimental_target="human TLR9 (Homo sapiens)" readout_value=65.09

====

Target: human TLR7 (Homo sapiens, UniProt Q9NYK1)
Construct: HA; host or cells: 293XL-hTLR7-HA (HEK293)
Sequence (Q9NYK1 27-1049): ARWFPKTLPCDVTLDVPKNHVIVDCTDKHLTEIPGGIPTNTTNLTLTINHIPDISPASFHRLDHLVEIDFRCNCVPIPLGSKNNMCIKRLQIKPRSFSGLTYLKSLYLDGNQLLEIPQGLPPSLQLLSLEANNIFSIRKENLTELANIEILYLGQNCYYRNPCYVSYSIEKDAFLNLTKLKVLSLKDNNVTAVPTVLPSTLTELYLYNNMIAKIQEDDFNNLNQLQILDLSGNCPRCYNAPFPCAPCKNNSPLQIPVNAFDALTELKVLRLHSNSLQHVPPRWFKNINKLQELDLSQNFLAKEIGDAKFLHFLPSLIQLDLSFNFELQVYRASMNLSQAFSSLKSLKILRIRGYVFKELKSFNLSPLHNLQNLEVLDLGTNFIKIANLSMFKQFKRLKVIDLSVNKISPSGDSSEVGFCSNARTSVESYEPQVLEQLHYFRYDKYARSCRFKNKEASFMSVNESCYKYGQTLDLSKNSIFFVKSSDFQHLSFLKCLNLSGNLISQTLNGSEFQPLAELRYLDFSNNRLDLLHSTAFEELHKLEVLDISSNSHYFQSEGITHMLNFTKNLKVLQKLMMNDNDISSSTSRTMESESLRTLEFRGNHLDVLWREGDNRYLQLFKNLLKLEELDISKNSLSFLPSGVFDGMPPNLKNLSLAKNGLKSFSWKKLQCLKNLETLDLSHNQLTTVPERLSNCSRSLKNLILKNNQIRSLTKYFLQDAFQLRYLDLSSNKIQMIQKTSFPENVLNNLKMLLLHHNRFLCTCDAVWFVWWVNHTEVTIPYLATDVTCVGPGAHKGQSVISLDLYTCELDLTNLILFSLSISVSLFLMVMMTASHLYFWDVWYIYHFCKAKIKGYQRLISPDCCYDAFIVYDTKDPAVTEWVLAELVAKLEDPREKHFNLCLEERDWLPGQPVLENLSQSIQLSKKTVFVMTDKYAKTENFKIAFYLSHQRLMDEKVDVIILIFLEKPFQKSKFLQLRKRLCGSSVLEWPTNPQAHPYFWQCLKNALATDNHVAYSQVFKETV
Test: HEK-TLR7 NF-κB-luciferase reporter, R848 stimulation
Assay type: cell-based
Conditions: ASO 100 nM; relative to R848 only, given as fraction
We use 0.7 as the dividing line for TLR7 100 nM (averaged NF-κB-Luciferase level relative to R848 condition): on or above the line is 1, below is -1.

chain="CTGCAGCTTCCTTGTC (antisense; LNA-modified, pattern not given here) [CTNN2B-2136 LNA V1]" label_class=-1
chain="GATAGCACCTTCAGCA (antisense; LNA-modified, pattern not given here) [CTNN2B-1294 LNA KL]" label_class=-1
chain="GCACACTTCGTACCCA (antisense; LNA-modified, pattern not given here) [CAMSAP1-4915 LNA V1]" label_class=-1
chain="GAGGTCTTGGCTTCGT (antisense; LNA-modified, pattern not given here) [MB21D1-525 LNA V1]" label_class=1
chain="TGATGGCCTCCCATCT (antisense; LNA-modified, pattern not given here) [HPRT LNA-332 V1]" label_class=-1
chain="TCGTAGTTGCTTCCTA (antisense; LNA-modified, pattern not given here) [MB21D1-1181 LNA KL]" label_class=-1
chain="CCACTTGGCAGACCAT (antisense; LNA-modified, pattern not given here) [CTNN2B-1575 LNA V1]" label_class=1
chain="TGTCCTTGCACGTGGC (antisense; LNA-modified, pattern not given here) [EGFR-1016 LNA V1]" label_class=-1
chain="TCCAACACTTCGTGGG (antisense; LNA-modified, pattern not given here) [HPRT LNA-669 V1]" label_class=-1
chain="CCTCCCATCTCCTTCA (antisense; LNA-modified, pattern not given here) [HPRT LNA-326 V1]" label_class=1
chain="ACTTCGTGGGGTCCTT (antisense; LNA-modified, pattern not given here) [HPRT LNA-663 V1]" label_class=1
chain="ACCACGTCTGCTCTAA (antisense; LNA-modified, pattern not given here) [CAMSAP1-1635 LNA KL]" label_class=1
chain="CTTGGCTTCGTGGAGC (antisense; LNA-modified, pattern not given here) [MB21D1-520 LNA V1]" label_class=1
